Test system: HL-60(TB) leukemia
Measurement description: NCI-60 one-dose screen, 48 h (100 = growth as untreated, 0 = no growth, -100 = all killed)
Condition parameters: 10 µM unless noted
About 83,000 compounds went through this panel and 20% of them were active in at least one assay; those are over-represented in the sample as a whole.
Recorded growth for the following compounds
API: value field is a number in %; no unit string.

* FC(F)c1nc2ccccc2n1-c1nc(N2CCOCC2)nc(N2CCOCC2)n1 | 15.1

Query block: So what does the record say about growth for CN(C)c1ccc(C(=O)c2ccc(N(C)C)c(N)c2)cc1N ?
Result block: 7.38

Query block: So what does the record say about growth for CC1CCC(C(C)C)C(NN)C1 (stereo not given) ?
Result block: 70.2

Query block: So what does the record say about growth for CCOC(=O)c1cc(C(=O)c2ccc(OC)c(OC)c2)n2c1ccc1ccc3cccnc3c12 ?
Result block: 3.73

Query block: So what does the record say about growth for CN1CCc2c(sc3nc4n(-c5ccc(Cl)cc5)c(=O)[nH]n4c(=O)c23)C1 ?
Result block: 89.3

---

Tested on: HL-60(TB) leukemia
Measurement description: NCI-60 one-dose screen, 48 h
Condition parameters: 10 µM unless noted
This is part of a sample that, as a whole, favours compounds with a hit. Of some 83,000 tested, about 20% had one in any assay. Active and inactive are the calls of the source. Rule for the calls: active = growth percent below 10; inactive = the rest.
Answer with one of the outcomes YES = active, NO = inactive

Query block: Kindly provide the recorded test outcome for the following compound: COc1cc(/C=C/c2cc(O)c3cc(C(C)=O)c(=O)oc3c2)cc2c1O[C@]1(C)CC[C@@H](O)C(C)(C)[C@H]1C2
Result block: YES

Query block: Kindly provide the recorded test outcome for the following compound: Clc1ccc(C2=NN=C3C(Cc4ccccc4)=Nc4ccccc4N3C2)cc1
Result block: NO

Query block: Kindly provide the recorded test outcome for the following compound: Brc1ccccc1Cn1c(-c2cncs2)nc2ccccc21
Result block: NO

Query block: Kindly provide the recorded test outcome for the following compound: CCOC(=O)C1=C(C)C(Cl)=N/C1=C\c1[nH]c(Cl)c(C)c1C(=O)OCC
Result block: NO

Query block: Kindly provide the recorded test outcome for the following compound: COc1c(C(NC(=O)c2ccccc2)c2sccc2C)cc(Cl)c2cccnc12 (stereo not drawn)
Result block: NO

Query block: Kindly provide the recorded test outcome for the following compound: COc1ccc2nc3cc(Cl)ccc3c(Nc3ccc(O)c(CN4CCCC4)c3)c2c1
Result block: YES

Query block: Kindly provide the recorded test outcome for the following compound: C=CCN1CCCC1=O
Result block: NO

Query block: Kindly provide the recorded test outcome for the following compound: CCCCCCCCCCCC(=O)OC(C)C(=O)Nc1ccccc1 (stereo not drawn)
Result block: NO

Query block: Kindly provide the recorded test outcome for the following compound: CC(=O)Oc1ccc(C)cc1C
Result block: NO

Query block: Kindly provide the recorded test outcome for the following compound: CCSc1ccc([C@@H]2[C@@H](N)C(=O)N2c2cc(OC)c(OC)c(OC)c2)cc1
Result block: YES

Query block: Kindly provide the recorded test outcome for the following compound: CCOC(=O)c1ccc(NC(=O)Nc2nccs2)cc1
Result block: YES

Query block: Kindly provide the recorded test outcome for the following compound: O=C(NCc1ccc(Cn2c(=O)sn(-c3ccccc3)c2=O)cc1)OCc1ccc2c(Br)cc(Br)c(O)c2n1
Result block: YES

Query block: Kindly provide the recorded test outcome for the following compound: Cn1cc(-c2ccc3nc(-c4ccc(CC(=O)Nc5cc(C(C)(C)C)no5)cc4)cnc3c2)cn1
Result block: NO
